Recorded composite z-score values for a group of compounds are listed next.
# Method summary: small-molecule microarray binders of probe aCHRDL2, primary screen, biochemical, biotinylated probe, 635/667 nm fluorescence (AID 1100)
# Assay context: higher = more signal
Endpoint: composite z-score

[[record]]
compound = "CC(C)N1CC=CC23O[C@@H]4C=CCOC(=O)[C@@H]4[C@H]2C(=O)N(CCCO)[C@@H]3C1=O (some centres undefined)"
numeric_readout = 0.627

[[record]]
compound = "CCCCCCCCCCC(O)C1C=CC2C(=O)N(C)C(=O)C2N1Nc1ccc([N+](=O)[O-])cc1[N+](=O)[O-] (centres undefined)"
numeric_readout = 0.905

[[record]]
compound = "COc1cc2c(cc1OC)CN(C(=O)[C@@H]1[C@H]3C(=O)O[C@H](c4ccccc4)[C@H](c4ccccc4)N3[C@H](c3ccc(OCCO)cc3)[C@@]13C(=O)Nc1ccc(C#CC4(O)CCCCCC4)cc13)CC2"
numeric_readout = -0.386

[[record]]
compound = "CC(c1ccccc1)C(O)C1C=CC2C(=O)N(c3ccccc3)C(=O)C2N1Nc1ccc([N+](=O)[O-])cc1 (centres undefined)"
numeric_readout = 0.862


* * *

# Method summary: yeast growth modulation, basal conditions, primary screen, YJM789 clinical isolate, OD600, 24 h (AID 1089);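 note: growth of clinical yeast isolate S. cerevisiae YJM 789 seeded 1000 cells per well; test concentration not given here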
# Assay context: S. cerevisiae YJM789 growth, higher = more signal, called active from +8 up or from −8 down
Label scheme for z-score: lower than -0.4 is no (0), -0.4 and above is yes (1).

[[record]]
compound = "C=C(C)C1CCC(C(O)C2C=CC3C(=O)N(C)C(=O)C3N2N2CCCCC2)CC1 (configuration not stated)"
category_label = "yes (1)"

[[record]]
compound = "C=C(/C(=C/C[C@@H](OC(C)=O)c1cccc(OCCO)c1)c1cc(C(=O)OC)ccc1OC)C(C)C"
category_label = "yes (1)"

[[record]]
compound = "CCCCCCc1nc(C2CC2)cc2c1[Si](C(C)C)(C(C)C)O[C@H]2c1ccccc1"
category_label = "no (0)"

[[record]]
compound = "O=C1N(Cc2ccccc2)c2ccccc2[C@@H]2OC(c3ccc(OCCCO)cc3)=N[C@]12Cc1ccccc1"
category_label = "no (0)"

[[record]]
compound = "NCCCCCCNC(=O)[C@@H]1C[C@@H]2C(=O)N[C@@H](CCCCN)C(=O)N2[C@@H]1c1cccc(OCCO)c1"
category_label = "yes (1)"

[[record]]
compound = "C=CCNC(=O)[C@@H]1[C@H]2C(=O)O[C@H](c3ccccc3)[C@H](c3ccccc3)N2[C@H](c2ccc(O)cc2)[C@@]12C(=O)N(C(=O)OCCOC)c1ccc(C#CC3(O)CCCCCC3)cc12"
category_label = "no (0)"

[[record]]
compound = "[N-]=[N+]=NCc1ccccc1C[C@@]1(C(=O)N2CCCCC2)N=C(c2ccc(OCCCO)cc2)O[C@@H]1c1ccccc1"
category_label = "yes (1)"


* * *

# System: wheat germ agglutinin (Triticum aestivum), Alexa647-labelled
# Method summary: wheat germ agglutinin binders on compound microarrays, profiling panel, artefact control for SMM control-protein annotation, biochemical, small-molecule microarray, 635/667 nm fluorescence (AID 1140);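 note: score merges 667 nm feature emission with signal to noise over triplicate slides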
# Assay context: WGA-A647 binding, 635 nm fluorescence, higher = more signal
Label scheme for composite z-score: lower than 0.6 is F, 0.6 and above is T.

[[record]]
molecule = "CC(C)(C)N1CC=CC23O[C@@H]4C=CCCOC(=O)C4[C@H]2C(=O)N(CCO)[C@@H]3C1=O (stereo not given in full)"
category_label = "F"

[[record]]
molecule = "C=CCN1Cc2ccccc2[C@H]2OC(c3ccc(OCCCO)cc3)=N[C@@]2(CC=C)C1=O"
category_label = "T"

[[record]]
molecule = "COc1ccc([Si](C)(C)[C@@H]2[C@@H](CC(=O)N3Cc4ccccc4C[C@H]3CO)O[C@]3(C(=O)N(C)c4ccccc43)[C@H]2C)cc1"
category_label = "T"

[[record]]
molecule = "Cc1ccc(S[C@]2(C(=O)NCC(F)(F)F)CC(=O)N(C3CCCCC3)[C@@H]2c2ccc(CO)cc2I)cc1"
category_label = "F"

[[record]]
molecule = "O[C@@H](Cc1ccccc1)[C@@H](/C=C/C1CC1)N(CC#Cc1ccccc1)Cc1cccc(Cl)c1"
category_label = "F"

[[record]]
molecule = "O=C1C2C=CC(C(O)c3ccc(Br)cc3)N(Nc3ccccc3F)C2C(=O)N1c1ccccc1 (stereo not given)"
category_label = "T"

[[record]]
molecule = "C[C@@H]1ON(c2ccc(C(=O)OC(C)(C)C)cc2)[C@H](c2ccc(O)cc2)[C@H]1C(=O)N1C(=O)OC[C@H]1Cc1ccccc1"
category_label = "T"

[[record]]
molecule = "COC(=O)[C@H](Cc1ccccc1)N1CC(/C=C/C2CC2)=C[C@H]1[C@H](O)Cc1ccccc1"
category_label = "T"

[[record]]
molecule = "C=C(/C(=C/C[C@@H](OC(C)=O)c1cccc(OCCO)c1)c1cc(C(=O)OC)ccc1OC)C(C)C"
category_label = "T"

[[record]]
molecule = "COc1ccc([Si](C)(C)[C@@H]2[C@@H](CC(=O)N(CCO)Cc3ccccc3)O[C@]3(C(=O)N(c4ccccc4)c4ccccc43)[C@H]2C)cc1"
category_label = "F"


* * *

# Method summary: Plasmodium falciparum growth inhibition, primary screen, strain 3D7, DAPI fluorescence, 100 nL (AID 1184);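 note: parasites grown inside human red blood cells in medium with human serum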
# Assay context: P. falciparum 3D7 growth, 3 d, higher = more signal
Recorded z-score values for a group of compounds are listed next.
Endpoint: z-score

[[record]]
compound = "OCC1CC(c2ccccc2)=NO1 (centres undefined)"
numeric_readout = 0.308

[[record]]
compound = "O=C1O[C@H](c2ccccc2)[C@H](c2ccccc2)N2[C@H]1[C@@H](C(=O)O)[C@]1(C(=O)Nc3ccc(C#CC4=CCCCC4)cc31)[C@H]2c1ccc(O)cc1"
numeric_readout = -0.628

[[record]]
compound = "COC(=O)c1c(CC[C@@H](CO)NC(=O)N[C@H](Cn2cc(C3(O)CCCCC3)nn2)C(C)C)oc(C(C)=O)c1C(=O)OC"
numeric_readout = -2.24

[[record]]
compound = "CCCNC(=O)[C@@H]1c2ccccc2C(=O)N(C(C)C)[C@H]1c1ccc(CO)cc1"
numeric_readout = -0.473


* * *

# Method summary: basal HepG2 mitochondrial membrane potential changes, profiling panel, cell-based, JC-1 fluorescence, 24 h, 100 nL compound (AID 1167); note: test concentration not given here
# Assay context: higher = more signal
Label scheme for z-score: lower than -0.1 is not met, -0.1 and above is met.

[[record]]
molecule = "COC(=O)CCCCCCC(=O)Nc1ccc(NC(=O)CCCC[P+](c2ccccc2)(c2ccccc2)c2ccccc2)cc1"
category_label = "met"

[[record]]
molecule = "COC(=O)c1nc2oc1CC[C@@H](CO)NC(=O)N(C)Cc1cnnn1C[C@H](Cc1ccccc1)NC2=O"
category_label = "met"

[[record]]
molecule = "COCCOC(=O)N1C(=O)[C@@]2(c3cc(C#CC4=CCCCC4)ccc31)[C@H](c1ccccc1OCCO)N1[C@H](c3ccccc3)[C@H](c3ccccc3)OC(=O)[C@H]1[C@@H]2C(=O)N1CCCCCCC1"
category_label = "met"

[[record]]
molecule = "COC(=O)[C@@]1(Cc2ccc(OC)cc2)[C@H]2c3cc(C(=O)N(C)C)n(CCO)c3C[C@H]2CN1C(=O)c1ccccc1"
category_label = "not met"

[[record]]
molecule = "COC(=O)C1=CC(CCCO)=CC(C2CC2)N(C)C=C1C(=O)OC (stereo not given)"
category_label = "met"

[[record]]
molecule = "COc1ccc(C#Cc2ccc3c(c2)[C@]2(C(=O)N3)[C@H](c3ccc(O)cc3)N3[C@H](c4ccccc4)[C@H](c4ccccc4)OC(=O)[C@H]3[C@@H]2C(=O)O)cc1"
category_label = "not met"

[[record]]
molecule = "COCCCNC(=O)[C@]1(CCS(=O)(=O)c2ccccc2)N=C(c2ccc(OCCCO)cc2)O[C@@H]1c1ccccc1CN=[N+]=[N-]"
category_label = "met"

[[record]]
molecule = "COC(=O)c1cn(C[C@@H](Cc2ccccc2)NC(=O)N[C@H](CO)CCc2oc(C(C)=O)c(C(=O)OC)c2C(=O)OC)nn1"
category_label = "met"

[[record]]
molecule = "CN(C)CCCNC(=O)[C@@]1(c2ccc([N+](=O)[O-])cc2)CC(=O)N(CC23CC4CC(CC(C4)C2)C3)[C@@H]1c1ccc(CO)cc1I"
category_label = "not met"

[[record]]
molecule = "C=CCN1C(=O)[C@@]2(O[C@@H](CCn3cc([C@H](O)c4ccccc4)nn3)[C@H]([Si](C)(C)c3ccc(OC)cc3)[C@H]2C)c2cc(N3CCC3=O)ccc21"
category_label = "met"

[[record]]
molecule = "COc1ccc([Si](C)(C)[C@@H]2[C@@H](CC(=O)N(CCO)Cc3ccccc3)O[C@]3(C(=O)N(c4ccccc4)c4ccccc43)[C@H]2C)cc1"
category_label = "not met"

[[record]]
molecule = "CN1C(=O)C2C=CC(C(O)c3ccc(F)cc3)N(Nc3ccccc3)C2C1=O (stereo not given)"
category_label = "not met"

[[record]]
molecule = "[N-]=[N+]=NCc1ccccc1[C@H]1OC(c2ccc(OCCCO)cc2)=N[C@@]1(CCS(=O)(=O)c1ccccc1)C(=O)N1CCCCC1"
category_label = "met"

[[record]]
molecule = "CC(C)Cc1ccc(CN2CC[C@@H](NC(=O)Nc3ccccc3)C2)cc1"
category_label = "not met"

[[record]]
molecule = "C=CCC(OC(C)=O)[C@@H]1[C@@H](N(Cc2cc3ccccc3o2)C(=O)Cc2ccc(F)cc2)c2cc(OCCCO)ccc2N1C(=O)c1ccc2ccccc2c1 (stereo not given in full)"
category_label = "met"


Value source: PubChem BioAssay
